# Test system: U87-MG glioblastoma cells
# EXPERIMENT_SUMMARY: CellTiter-Glo viability assay, U87-MG cells
# Type: cell-based, human
# CONDITION_LABEL: 50% viability after 72-hr incubation, n = 3
Positions of bridges follow the written chain, without caps; N, C: chain ends. Non-standard residues stand in square brackets, D forms with d. Residues, ends and D or L forms follow the SMILES beside them. *: point of attachment. NMe2Val = CC(C)[C@@H](C(=O)*)N(C)C; NMeI = CC[C@H](C)[C@H](NC)C(=O)O; NMeT = CN[C@H](C(=O)O)[C@@H](C)O; NMeL = CN[C@@H](CC(C)C)C(=O)O; dHiv = CC(C)[C@@H](O)C(=O)O; NMeS = CN[C@@H](CO)C(=O)O; dNMeA = CN[C@H](C)C(=O)O
Listing: CC50 of selected compounds
ATTRIBUTE_MEASURED: CC50 (nM)

>  <COMPOUND>
CC[C@H](C)[C@H]1C(=O)N[C@@H](C)C(=O)N(C)[C@@H](CC(C)C)C(=O)N[C@@H](Cc2ccc(OC)cc2)C(=O)N(C)[C@H](C)C(=O)N[C@H](C)[C@H](N(C)C(=O)[C@H](CC(C)C)N(C)C(=O)[C@H](C)N(C)C(=O)[C@H](OC(=O)[C@H](C(C)C)N(C)C)C(C)C)C(=O)N(C)[C@@H](C)C(=O)N1C [Peptide 16a]

>  <ENDPOINT_UNIT>
nM

>  <OBSERVED>
3.9

$$$$
>  <COMPOUND>
CC[C@H](C)[C@H]1C(=O)N[C@@H](C)C(=O)N(C)[C@@H](CC(C)C)C(=O)N[C@@H](Cc2ccc(OC)cc2)C(=O)N(C)[C@H](C)C(=O)O[C@H](C)[C@H](N(C)C(=O)[C@H](CC(C)C)N(C)C(=O)[C@H](COC)N(C)C(=O)[C@H](OC(=O)[C@H](C(C)C)N(C)C)C(C)C)C(=O)N(C)[C@@H](COC)C(=O)N1C [Coibamide A (1a), coibamide A] (NMe2Val-[dHiv][NMeS](Me)[NMeL][NMeT][NMeS](Me)[NMeI]A[NMeL]Y(Me)[dNMeA]; ester 4-C)

>  <ENDPOINT_UNIT>
nM

>  <OBSERVED>
50

$$$$
>  <COMPOUND>
CC[C@H](C)[C@H]1C(=O)N[C@@H](C)C(=O)N(C)[C@@H](CC(C)C)C(=O)N[C@@H](Cc2ccc(OC)cc2)C(=O)N(C)[C@H](C)/C=C/[C@H](C)[C@H](N(C)C(=O)[C@H](CC(C)C)N(C)C(=O)[C@H](C)N(C)C(=O)[C@H](OC(=O)[C@H](C(C)C)N(C)C)C(C)C)C(=O)N(C)[C@@H](C)C(=O)N1C [Peptide 3b]

>  <ENDPOINT_UNIT>
nM

>  <OBSERVED>
6.2

$$$$
